Below is a list of entries, each paired with its recorded GI50 value.
Test system: HOP-62
Assay: NCI tumour cell line growth inhibition, 48 h
Activity calls are given as the source filed them. Cut-off read from the data, not from the text of the source: active = GI50 up to about 1.1 µM and inactive = higher.

- molecule: "c1ccc(C2CC(NC3CCCCC3)=Nc3ccccc3N2)cc1 (stereo not given)"
  valueType: "GI50"
  result: "> 100 µM (inactive)"
- molecule: "COc1cc(C(=O)O)c([N+](=O)[O-])c(OC)c1OC"
  valueType: "GI50"
  result: "> 100 µM (inactive)"
- molecule: "CCOC(=O)C(C)(Cc1ccc(O)cn1)NC(=O)c1ccccc1 (stereo not given)"
  valueType: "GI50"
  result: "> 100 µM (inactive)"
- molecule: "Oc1c(Br)cc(/C=C/c2ccnc(/C=C/c3cc(Br)c(O)c(Br)c3)c2)cc1Br"
  valueType: "GI50"
  result: "34.4 µM (inactive)"
- molecule: "COC1CC(OC)C2OC(c3ccccc3)OCC2O1 (stereo not given)"
  valueType: "GI50"
  result: "> 100 µM (inactive)"

Quick note, GI50 for O=C1CNNC(CSc2nc3ccc(I)cc3c(=O)n2Cc2ccccc2)=N1 landed at 32.3 µM (inactive)

Record CS[C@]12[C@@H]3C(=O)N(C)C(=O)[C@@H]3[C@](C)(C(=O)N1C)C(=O)N2c1ccccc1 . Reported GI50: > 100 µM (inactive)

Briefly, GI50 measured for O=C(c1ccc(Cl)cc1)c1ccc(OCC(=O)N2CCN(c3ccccc3)CC2)cc1 : > 100 µM (inactive)

Per the records, this molecule ( COc1ccc2nc3cc([N+](=O)[O-])ccc3c(Nc3ccc(S(=O)(=O)N=C(N)N)cc3)c2c1 ) has GI50 equal to 27.2 µM (inactive)

# GI50 of O=[N+]([O-])c1ccc(-n2nc3ccc4c(no[n+]4[O-])c3n2)cc1 = 35.2 µM (inactive)
